MEASURED QUANTITY: melting point

Look over these answered cases.
Cc1cc(OCc2ncc([N+](=O)[O-])n2C)ccc1S(C)=O (stereo not given) = 121 °C
COc1cc(NC(=O)c2cccc(CSc3nc(NC(C)=O)n[nH]3)c2)cc(OC)c1OC = 196 to 201 °C
COC(=O)N1CCCC2(Cc3ccc(Br)cc3)C(=O)N(c3cc(Cl)nc(Cl)c3)C(=O)N12 (stereo not given) = 81 °C
CN1CCN2C(=O)c3ccccc3C12c1ccccc1 (stereo not given) = 120 to 122 °C
CCCCCCCCCCCCCCCCCCOc1ccc(C(=O)C=Cc2ccc(SC)cc2)cc1 = 104 °C
COc1ccc2c(c1F)C(=O)OC2=O = 128 to 130 °C

Quickly give me recorded melting point for "CC1(C)Cc2ccsc2C=[N+]1[O-]"
136 to 138 °C

Quickly give me recorded melting point for "Cc1c(CC(=O)N[C@@H](CO[N+](=O)[O-])C(=O)O)cc(-c2ccc(S(C)(=O)=O)cc2)n1-c1ccc(F)cc1"
109 °C

Quickly give me recorded melting point for "C=C(C(=O)c1ccccc1)c1cccnc1"
113 to 114 °C

Quickly give me recorded melting point for Cc1ccc(-c2ccc3c(c2)C=C(C(=O)Nc2ccc(CS(=O)c4ccccc4)cc2)CCO3)cc1 (stereo not given)
127 to 128 °C

Quickly give me recorded melting point for "CC(C)C(=O)c1c(C2CC2)nn2ccccc12"
108 to 109 °C

----------
In this section we review reported melting point values for a set of compounds.

Look over these answered cases.
CC(C)(C)C1NC(C(=O)O)CS1 (mixture of isomers) = 184 °C
CC(C)(C)c1cc(NC(=O)NCc2ccc(N)cc2)cc(C(C)(C)C)c1O = 194 to 195 °C
Cn1cncc1C(O)(c1ccc(Cl)cc1)c1ccc2c(c1)c(-c1nc(-c3ccccc3)cs1)cc(=O)n2C (stereo not given) = 200 °C
COc1ccc(C(=O)O)cc1OC(C)(C)C = 177 to 178 °C
O=C(c1ccccc1)c1nc2cnc3ccc(F)cc3c2[nH]1 = 255 to 256 °C

Quickly give me recorded melting point for O=C(Nc1ccccn1)C(CC1CCCC1)c1ccc(Cl)c([N+](=O)[O-])c1 (stereo not given)
48 to 52 °C

Quickly give me recorded melting point for "CCC(CC)Nc1cc(C)nc(Oc2c(C)cc(C)cc2C)c1NC(=O)CCl"
152 to 154 °C

----------
MEASURED QUANTITY: melting point (°C)
The response must be a number in °C with no trailing unit.

CC(=O)c1ccc(-c2cc(-c3c(-c4ccccn4)nc4ccccn34)ccn2)cc1 = 214
CN1CCC(=C2c3cc(C=O)n(C)c3CCn3ncnc32)CC1 = 204

Quickly give me recorded melting point for "CCC(=O)Nc1ccnn1-c1c(Cl)cc(C(F)(F)F)cc1Cl"
125

----------
MEASURED QUANTITY: melting point

Look over these answered cases.
Cc1[nH]c(=O)c(C(N)=O)cc1-c1ccc2nccn2c1 = > 300 °C
O=C(Nc1ccccc1)N1CC(Oc2ccc(C(F)(F)F)cc2)C1 = 174 to 176 °C
N#CC(C(=O)O)=C1Nc2ccccc2O1 = 185 to 187 °C
COc1ccc(C(=O)Nc2ccc(F)cc2)cc1Nc1ccccc1 = 151 to 152 °C

Quickly give me recorded melting point for "BrC(Br)(Br)c1nc2ccccc2s1"
79 to 80 °C

Quickly give me recorded melting point for "O=[N+]([O-])c1ccc(CS(=O)(=O)NCCc2ccccc2)cc1"
101 to 103 °C

Quickly give me recorded melting point for "CC1(C)CCC(C)(C)c2c(OS(=O)(=O)C(F)(F)F)cc(-c3ccccc3)cc21"
110 °C

Quickly give me recorded melting point for "CSC1=Nc2ccccc2Cc2nccn21"
200 to 201 °C

Quickly give me recorded melting point for "CC(=O)c1ccc(C2CCCC2)cc1"
100 to 102 °C

----------
In this section we review reported melting point values for a set of molecules.

COS(=O)(=O)c1cc(C(C)(C)C)c(O)c(C(C)(C)C)c1 = 116 to 118 °C
COC(=O)C(=O)c1ccc(OC/C=C/c2ccc3ccccc3c2)cc1 = 100 to 102 °C
COc1ccc(OC(C(=O)N(C)C)C2(O)CCCCC2)cc1 (stereo unspecified) = 98 to 99 °C
CSc1ccc(-c2ccc(C(=O)Nc3cc4ncc(CN5CCCC5)cc4cc3C)cc2)cc1 = 198 °C
C/C(O)=C(\C#N)C(=O)Sc1ccc(Cl)cc1 = 91 to 94 °C
O=[N+]([O-])c1ccc(S(=O)(=O)N2CC3CN(Cc4ccccc4)CC(C2)O3)cc1 = 98.4 to 101 °C
CCOC(=O)C=Cc1cc(C=CC(N)=O)cc(C(O)c2ccc(F)cc2)c1 (stereo unspecified) = 197 to 199 °C
COc1cc(C(=O)c2nc(N)c3ccccn23)ccc1[N+](=O)[O-] = 214 °C
CCC(C)n1c(=O)ccc2cnc(Nc3ccccc3)nc21 (stereo unspecified) = 155 to 156 °C
CC(C)(C)c1cc2c(Cl)ncnc2o1 = 72 to 74 °C

Quickly give me recorded melting point for "CCOc1cc(S(=O)(=O)CC)ccc1-c1nc2ncccc2[nH]1"
207 to 208 °C

Quickly give me recorded melting point for "COC(=O)C(=O)c1ccc(C#CCNC(=O)c2ccc3ccccc3c2)cc1"
113 to 114 °C

Quickly give me recorded melting point for "CCCC(CCC)(CCC(N)=S)C(CCC)(CCC)C(N)=S"
87 to 88 °C

Quickly give me recorded melting point for "O=C(NCCC(=O)N1CCOCC1)c1ccc(-c2ccc3nnn(Cc4ccc5ncccc5c4)c3n2)cc1F"
212 to 215 °C

Quickly give me recorded melting point for "N#Cc1ccc(S(=O)(=O)Nc2ccc(Br)c3cc[nH]c23)cc1"
214 to 216 °C

----------
MEASURED QUANTITY: melting point

Look over these answered cases.
Cn1c(-c2ccc(Cl)cc2)cc2ncccc2c1=O = 139 to 140 °C
O=C(O)CCCCN1CCC(C(O)(c2ccc(F)cc2)c2ccc(F)cc2)CC1 = 105 to 107 °C
CCCCCc1n[nH]c(CCCCC)n1 = 66 to 68 °C
O=C1c2ccccc2OC2=CCON12 = 144 to 148 °C
O=[N+]([O-])c1ccc(SCc2c[nH]cn2)nc1 = 155 to 156 °C

As a next step, examine the compound that follows.
Quickly give me recorded melting point for "Cc1nc(N2CCN(Cc3ccc(OC(F)(F)F)cc3)C2=O)sc1C(=O)NCc1cccnc1"
165 to 166 °C

----------
In this section we review reported melting point values for a set of compounds.

Quickly give me recorded melting point for "COC(=O)c1nc2c(c(SC)nn2-c2ccccc2)c(N)c1C(=O)OC"
120 to 122 °C

Quickly give me recorded melting point for "CCOC(=O)c1cc2ccc([Si](C)(C)C)cc2n1Cc1cccc(F)c1"
87 to 88 °C

Quickly give me recorded melting point for CC(=O)c1cc(CC(C)O)c(OCCCCC#N)cc1O (stereo unspecified)
86 to 88 °C

Quickly give me recorded melting point for "COc1ccc(C=O)c(O[Si](C)(C)C(C)(C)C)c1O[Si](C)(C)C(C)(C)C"
74 to 75 °C

Quickly give me recorded melting point for "CC(C)c1ccc2ncn(/C=C/C(=O)NCCNCc3cccnc3)c(=O)c2c1"
121 to 124 °C

Quickly give me recorded melting point for "CC(C)(CCc1cc2nc(Cl)ccc2n1S(=O)(=O)c1ccc2ncsc2c1)C(=O)O"
21 °C

Quickly give me recorded melting point for "CCc1cc(-c2ccc(-c3ccn(CC(=O)OC)n3)cc2)ccc1OC"
116 to 120 °C

Quickly give me recorded melting point for CCC1=NC(NC(=O)Nc2cccc(C)c2)C(=O)N(CC(=O)C2CCCCC2)c2c(C)cccc21 (stereo unspecified)
161 to 164 °C

Quickly give me recorded melting point for "C[C@@H](O)C1(c2onc(-c3ccc(O)cc3)c2-c2ccccc2)CC1"
213 °C

Quickly give me recorded melting point for "Cc1ccc2c(O)cc(=O)oc2c1C"
186 to 190 °C

Quickly give me recorded melting point for "COc1cc2cc(CO)c(CO)c(-c3cccc(Br)n3)c2cc1OC"
107 to 108 °C

Quickly give me recorded melting point for CCOC(=O)C1=CC(=O)C2(C(=O)c3ccccc3)OC2O1 (stereo unspecified)
96 to 98 °C

Quickly give me recorded melting point for "O=C(c1ccccc1)c1cc[nH]c1"
96 to 97 °C

Quickly give me recorded melting point for "CCOC(=O)c1sc(I)nc1-c1ccccc1"
104 to 106 °C

----------
MEASURED QUANTITY: melting point

O=S(=O)(Cl)c1ccc(-c2ccc(F)cc2)s1 = 82 to 85 °C
CCOC(=O)NCc1cccc(C(=O)OC)c1C(=O)OC = 187 to 189 °C
O=C(NC(C(=O)O)c1ccsc1)OCc1ccccc1 (configuration not stated) = 115 to 117 °C
O=C(CCCN1CCC(O)CC1)c1ccccc1 = 101 to 102 °C
CC(C)(C)OC(=O)N1CC(c2ccc(N)nc2)C1 = 103 to 104 °C
O=[N+]([O-])c1cccc(N2CCOCC2)c1 = 87 to 90 °C

Quickly give me recorded melting point for "OCCOc1cncc(Cl)c1"
38 to 40 °C

The values you see were collected from a melting point compilation (Tetko et al.; mined from patent text by program, amines drawn as free bases though some values may be those of a salt).
